- System: West Nile virus
- assay_remarks: Antiviral activity against West Nile virus infected in baby hamster kidney cells assessed as reduction in viral titer after 72 hrs by plaque reduction assay
- Type: functional, organism-based
Please go through the items and note down their EC50.
Numbers only, in µM.

[[record]]
compound = "C[C@@H]1CCCCC1OCCCCCCN1C[C@H](O)[C@@H](O)[C@H](O)[C@H]1CO (stereo not given in full)"
meas_value = 3.5

[[record]]
compound = "Cc1ccc(C)c(OCCCCCCN2C[C@H](O)[C@@H](O)[C@H](O)[C@H]2CO)c1"
meas_value = 1.5

[[record]]
compound = "OC[C@@H]1[C@@H](O)[C@H](O)[C@@H](O)CN1CCCCCC1(O)CCCCC1"
meas_value = 4.5

[[record]]
compound = "CC(C)[C@@H]1CC[C@@H](C)CC1OCCCCCCN1C[C@H](O)[C@@H](O)[C@H](O)[C@H]1CO (stereo not given in full)"
meas_value = 4.75


Switching to the query record.
Using the record for CCCCCCCCCN1C[C@H](O)[C@@H](O)[C@H](O)[C@H]1CO , report its EC50.
4

* * *

Hi there, I'd appreciate the recorded CC50 for every entry that follows.
- assay_remarks: Cytotoxicity against african green monkey Vero cells by MTT assay
- Assay type: cell-based
- experimental_conditions: chlorocebus sabaeus

[[record]]
compound = "CC1CCC(OCCCCCCN2C[C@H](O)[C@@H](O)[C@H](O)[C@H]2CO)CC1 (stereo partly drawn)"
meas_value = "> 40 µM"

[[record]]
compound = "CCCCCCCCCN1C[C@H](O)[C@@H](O)[C@H](O)[C@H]1CO"
meas_value = "> 40 µM"


Requested read-out: CC50. Entry: OC[C@@H]1[C@@H](O)[C@H](O)[C@@H](O)CN1CCCCCC1(O)CCCCC1
> 40 µM
